- System: Alcaligenes faecalis 0114002
- ASSAY_METHOD_TEXT: In vitro antibacterial activity, MIC (standard strain)
- Assay type: cell-based
- ASSAY_CONTEXT: Alcaligenes faecalis 0114002, 10^6 cells/ml
Where a name gives a salt, the structure may show the parent alone.
TEST_READOUT: MIC (mg/L)
Report only the number, with the unit mg/L understood.

Would you please look over these solved cases?
CC1CN(c2c(F)cc3c(=O)c(C(=O)O)cn(C4CC4)c3c2Cl)CCN1 (stereo not shown) [Example 5, hydrochloride] : 0.39
CC1CN(c2c(F)cc3c(=O)c(C(=O)O)cn(C4CC4)c3c2F)CCN1 (stereo not shown) : 0.2
CC1CN(c2c(F)cc3c(=O)c(C(=O)O)cn(C4CC4)c3c2F)CC(C)N1 (stereo not shown) : 0.2

Attention now turns to another entry.
MIC measured on CC1CN(c2c(F)cc3c(=O)c(C(=O)O)cn(C4CC4)c3c2Cl)CC(C)N1 (stereo not shown) [Example 6, hydrochloride] = 0.78
